Target: Prostaglandin G/H synthase 1 (Ovis aries, UniProt P05979)
Sequence (P05979 whole entry): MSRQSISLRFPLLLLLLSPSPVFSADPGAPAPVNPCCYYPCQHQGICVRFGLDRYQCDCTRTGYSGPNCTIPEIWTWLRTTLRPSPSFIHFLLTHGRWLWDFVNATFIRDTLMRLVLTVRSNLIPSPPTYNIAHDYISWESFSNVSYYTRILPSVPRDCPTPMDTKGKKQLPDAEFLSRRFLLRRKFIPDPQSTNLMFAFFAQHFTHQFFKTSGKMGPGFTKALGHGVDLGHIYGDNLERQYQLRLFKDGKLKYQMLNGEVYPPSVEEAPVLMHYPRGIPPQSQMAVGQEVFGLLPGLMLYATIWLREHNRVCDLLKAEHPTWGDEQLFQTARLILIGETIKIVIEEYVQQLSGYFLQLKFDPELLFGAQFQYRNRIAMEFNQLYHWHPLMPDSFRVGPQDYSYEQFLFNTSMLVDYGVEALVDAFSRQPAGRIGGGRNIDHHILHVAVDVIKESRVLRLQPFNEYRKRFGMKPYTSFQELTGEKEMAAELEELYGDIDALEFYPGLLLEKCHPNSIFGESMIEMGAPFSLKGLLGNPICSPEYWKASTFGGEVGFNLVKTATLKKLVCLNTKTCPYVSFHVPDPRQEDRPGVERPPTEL
result-type: IC50 (µM)
Give bare numbers, in µM.

Could you report IC50 for every entry in the following list?
1. CS(=O)(=O)Nc1ccc(-c2cc(C(F)(F)F)nn2-c2ccc(N)cc2)cc1
2. CN(C)c1ccc(-n2nc(C(F)(F)F)cc2-c2ccc(NS(C)(=O)=O)cc2)cc1

OUTPUT:
[31.6, 3.4]

* * *

target: Prostaglandin G/H synthase 2 (Homo sapiens); settings: Sf9; at 10 µM;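 note: in vitro assay on recombinant human COX-2 produced in baculovirus-infected Sf9 insect cells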
Description: In vitro inhibitory activity against human recombinant prostaglandin G/H synthase 2 (COX-2) at 10 uM expressed in sf-9 cells infected with baculovirus
Classify as follows. Reported inhibition greater than or equal to 90%: true (1). Reported inhibition below: false (0).

INPUT: Check this compound for inhibition at or above 90%: CS(=O)(=O)Nc1ccc(-c2cc(C(F)(F)F)nn2-c2ccc([N+](=O)[O-])cn2)cc1
OUTPUT: false (0)

* * *

target: Prostaglandin G/H synthase 1 (Ovis aries) (UniProt P05979); conditions: at 10 µM
Description: In vitro inhibitory activity against prostaglandin G/H synthase 1 (COX-1) from the microsomal fraction of ram seminal vesicles at 10 uM concentration
result-type: inhibition (%)
Numbers only, in %.

Completed entries (count: 5):
• CS(=O)(=O)Nc1ccc(-c2cc(C(F)(F)F)nn2-c2ccc(S(N)(=O)=O)cc2CO)cc1 = 42
• CS(=O)(=O)Nc1ccc(-c2cc(C(F)(F)F)nn2-c2ccccc2)cc1 = 0
• CS(=O)(=O)Nc1ccc(-c2cc(C(F)F)nn2-c2ccccc2F)cc1 = 90
• CS(=O)(=O)N(c1ccc(-c2cc(C(F)(F)F)nn2-c2ccc(Cl)cc2)cc1)S(C)(=O)=O = 14
• CS(=O)(=O)Nc1ccc(-c2cc(C(F)(F)F)nn2-c2ccc(Br)cc2)cc1 = 88

Fill in inhibition for each of the 8 compounds listed.
1. CCC(=O)N(c1ccc(-c2cc(C(F)(F)F)nn2-c2ccc(Cl)cc2)cc1)S(C)(=O)=O
2. CNc1ccc(-n2nc(C(F)(F)F)cc2-c2ccc(NS(C)(=O)=O)cc2)cc1
3. Cc1cc(-c2ccc(NS(C)(=O)=O)cc2)n(-c2ccc([N+](=O)[O-])cn2)n1
4. CS(=O)(=O)Nc1ccc(-c2cc(C(F)(F)F)nn2-c2ccc([N+](=O)[O-])cn2)cc1
5. CC(=O)Nc1ccc(-c2cc(C(F)(F)F)nn2-c2ccc(S(N)(=O)=O)cc2CO)cc1
6. CS(=O)(=O)Nc1ccc(-c2cc(C(F)(F)F)nn2-c2cccc(Cl)c2)cc1
7. CN(C)c1ccc(-n2nc(C(F)(F)F)cc2-c2ccc(NS(C)(=O)=O)cc2)cc1
8. Cc1cc(-c2ccc(NS(C)(=O)=O)cc2)n(-c2ccc(Cl)cc2)n1

OUTPUT:
[18, 14, 0, 0, 59, 96, 85, 0]
